Data provenance is patent US20230131535A1.

- target_under_test: Kv1.3 potassium channel (Homo sapiens)
- Construct: expressed in transfected cells
- Sequence (P22001 whole entry): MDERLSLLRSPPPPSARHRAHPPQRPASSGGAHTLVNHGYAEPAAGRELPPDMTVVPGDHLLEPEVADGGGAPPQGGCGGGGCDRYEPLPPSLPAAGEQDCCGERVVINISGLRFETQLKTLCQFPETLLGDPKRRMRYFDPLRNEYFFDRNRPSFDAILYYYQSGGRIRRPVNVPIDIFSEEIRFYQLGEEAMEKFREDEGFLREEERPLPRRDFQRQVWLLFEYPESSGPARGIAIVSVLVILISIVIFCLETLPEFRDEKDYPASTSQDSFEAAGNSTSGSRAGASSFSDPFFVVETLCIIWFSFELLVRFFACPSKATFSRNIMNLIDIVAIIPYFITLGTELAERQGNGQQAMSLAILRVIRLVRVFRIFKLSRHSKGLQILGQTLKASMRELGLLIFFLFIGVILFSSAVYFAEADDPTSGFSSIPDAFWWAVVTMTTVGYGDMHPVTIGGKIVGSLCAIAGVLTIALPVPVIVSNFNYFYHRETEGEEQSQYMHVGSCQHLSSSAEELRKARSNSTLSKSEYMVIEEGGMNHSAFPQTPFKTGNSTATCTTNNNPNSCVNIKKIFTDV
- assay_text: Kv1.3 potassium channel blocker activity, automated whole-cell patch clamp (Patchliner)
- Type: cell-based
- study_conditions: Table 6; CHO-K1 cells stably expressing Kv1.3; whole cell current, pulses -90 mV to +40 mV; read-out: Kv1.3_IC50
pIC50: −log10 of the molar value.
Below, each of the compounds is paired with its reported pIC50 value.
observed_property: pIC50

> print(dat)
                                    compound  result
 1  NC(c1ccc(=O)[nH]c1)c1cc(Cl)c(Cl)cc1O (stereo not drawn) [Compound 15]  > 5.00
 2  Nc1ccc(Cl)c(Cl)c1C(=O)c1ccncc1 [Compound 62]  > 5.00
 3  O=C(N[C@@H](c1ccncc1)c1c(O)ccc(Cl)c1Cl)[C@@H]1CCCN1 (single isomer, unassigned) [Compound 65]  > 4.52
 4  COc1ccc(Cl)c(Cl)c1C(N)c1ccncc1 (stereo not drawn) [Compound 70]  > 4.52
 5  CC(C)C(=O)NC(c1ccncc1)c1c(O)ccc(Cl)c1Cl (stereo not drawn) [Compound 69]  > 4.52
 6  Cc1cnccc1C(O)c1c(O)ccc(Cl)c1Cl (single isomer, unassigned) [Compound 43]  > 4.52
 7  Nc1ccc(Cc2cc(Cl)c(Cl)cc2O)cn1 [Compound 8]  > 5.00
 8  CC(=O)NCc1cc(C(O)c2c(O)ccc(Cl)c2Cl)ccn1 (stereo not drawn) [Compound 33]  > 5.00
 9  O=C(N[C@H](c1ccncc1)c1c(O)ccc(Cl)c1Cl)[C@@H]1CCCN1 (single isomer, unassigned) [Compound 68]  > 6.00
10  NC(c1ccncc1)c1cc(Cl)c(Cl)cc1O (stereo not drawn) [Compound 6]  > 5.00
11  Oc1ccc(Cl)c(Cl)c1C(O)c1ccncc1 (single isomer, unassigned) [Compound 34]  > 4.52
12  NC(=O)c1cc(C(O)c2c(O)ccc(Cl)c2Cl)ccn1 (stereo not drawn) [Compound 23]  > 5.00
